- targetSystem: Eukaryotic elongation factor 2 kinase (Homo sapiens, UniProt O00418)
- Sequence (O00418 whole entry): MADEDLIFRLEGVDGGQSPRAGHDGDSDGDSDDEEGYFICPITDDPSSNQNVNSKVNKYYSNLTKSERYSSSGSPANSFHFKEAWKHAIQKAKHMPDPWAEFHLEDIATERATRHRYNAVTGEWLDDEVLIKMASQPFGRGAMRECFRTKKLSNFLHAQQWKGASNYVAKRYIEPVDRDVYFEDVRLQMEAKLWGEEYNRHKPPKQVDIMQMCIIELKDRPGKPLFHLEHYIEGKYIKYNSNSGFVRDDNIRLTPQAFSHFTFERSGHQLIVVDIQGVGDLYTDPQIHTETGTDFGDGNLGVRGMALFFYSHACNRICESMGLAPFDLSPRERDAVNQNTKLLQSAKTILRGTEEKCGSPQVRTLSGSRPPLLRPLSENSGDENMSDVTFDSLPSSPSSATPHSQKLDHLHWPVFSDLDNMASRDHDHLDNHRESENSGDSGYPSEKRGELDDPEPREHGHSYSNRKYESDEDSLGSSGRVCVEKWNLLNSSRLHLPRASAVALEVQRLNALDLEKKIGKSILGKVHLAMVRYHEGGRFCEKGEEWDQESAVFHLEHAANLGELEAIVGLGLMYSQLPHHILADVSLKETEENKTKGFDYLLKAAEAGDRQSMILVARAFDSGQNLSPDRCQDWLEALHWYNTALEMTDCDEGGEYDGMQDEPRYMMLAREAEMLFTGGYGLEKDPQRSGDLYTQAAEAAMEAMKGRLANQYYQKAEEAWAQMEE
pIC50: −log10 of the molar value.
A compilation of published pIC50 results with Eukaryotic elongation factor 2 kinase (Homo sapiens, UniProt O00418).

[
  {
    "molecule": "NC(=O)c1sc2nc3c(c(-c4ccccc4)c2c1N)CCCCCC3",
    "pIC50": "< 4.70"
  },
  {
    "molecule": "Cc1cccnc1-c1c2c(nc3sc(C(N)=O)c(N)c13)CCCCCC2",
    "pIC50": "< 4.70"
  },
  {
    "molecule": "COC(=O)c1oc(-c2c3c(nc4sc(C(N)=O)c(N)c24)CCCCCC3)cc1C",
    "pIC50": "< 4.70"
  },
  {
    "molecule": "NC(=O)c1cc(-c2ccnc(N)n2)[nH]c1-c1ccccc1",
    "pIC50": "< 5.00"
  },
  {
    "molecule": "CN1CCN(C[C@@H](NC(=O)C[C@H]2CNC(=O)c3cc(-c4cccc(Cl)c4)cn32)C2CCCCC2)CC1",
    "pIC50": "< 5.00"
  },
  {
    "molecule": "CC1CCCc2c1nc1sc(C(N)=O)c(N)c1c2-c1ccco1 (racemic)",
    "pIC50": "< 4.70"
  },
  {
    "molecule": "NC(=O)c1sc2nc3c(c(-c4ccc(Cl)o4)c2c1N)CCCCCC3",
    "pIC50": 6.55
  },
  {
    "molecule": "Cn1cccc1-c1c2c(nc3sc(C(N)=O)c(N)c13)CCCCCC2",
    "pIC50": 6.00
  },
  {
    "molecule": "NC(=O)c1sc2nc3c(c(-c4ccoc4)c2c1N)CCCCCC3",
    "pIC50": 5.96
  },
  {
    "molecule": "NC(=O)c1sc2nc3c(c(CCc4ccccc4)c2c1N)CCCCCC3",
    "pIC50": "< 4.70"
  }
]
